Experiment description: Fluorescence excitation and emission spectra of the dyes in buffer (Fluorolog-3 spectrometer)
Assay type: physicochemical
Observable: Stokes shift (nm)
# output: bare number, implied unit nm

Qu. What measured Stokes shift goes with C[n+]1c(/C=C/c2ccc(OCCOCCOCCOc3ccc(/C=C/c4sc5ccccc5[n+]4C)cc3)cc2)sc2ccccc21 [HE-HE] ?
Ans. 216

Qu. Similarly, C[n+]1c(/C=C/c2ccc(SCCO)cc2)sc2ccccc21 [FI] ?
Ans. 164

Qu. Similarly, CN(CCO)c1ccc(/C=C/c2sc3ccccc3[n+]2C)cc1 [GA] ?
Ans. 75

Qu. Similarly, C[n+]1c(/C=C/c2ccc(N(CCO)CCO)cc2)sc2ccccc21 [Dye 95] ?
Ans. 85

Qu. Similarly, COc1ccc(/C=C/c2sc3ccccc3[n+]2C)cc1 [HE] ?
Ans. 115

---

Experiment description: Fluorescence excitation and emission spectra of the dyes in buffer (Fluorolog-3 spectrometer)
Format: physicochemical
Set-up: key: peak wavelengths in nm
Provide the reported Excitation max. of each item.
Returns: the value as a bare number; no unit string appended.

Qu. What measured Excitation max. goes with CN(CCO)c1ccc(/C=C/c2sc3ccccc3[n+]2C)cc1 ?
Ans. 512

Qu. Similarly, C[n+]1c(/C=C/c2ccc(N(CCO)CCO)cc2)sc2ccccc21 ?
Ans. 500

Qu. Similarly, C[n+]1c(/C=C/c2ccc(SCCO)cc2)sc2ccccc21 ?
Ans. 382

Qu. Similarly, COc1ccc(/C=C/c2sc3ccccc3[n+]2C)cc1 ?
Ans. 385

Qu. Similarly, C[n+]1c(/C=C/c2ccc(OCCOCCOCCOc3ccc(/C=C/c4sc5ccccc5[n+]4C)cc3)cc2)sc2ccccc21 ?
Ans. 400

---

Experiment description: Fluorescence excitation and emission spectra of the dyes in buffer (Fluorolog-3 spectrometer)
Assay type: physicochemical
Set-up: key: peak wavelengths in nm
Provide the reported Emission max. of each item.
Returns: the value as a bare number; no unit string appended.

Qu. What measured Emission max. goes with C[n+]1c(/C=C/c2ccc(OCCOCCOCCOc3ccc(/C=C/c4sc5ccccc5[n+]4C)cc3)cc2)sc2ccccc21 ?
Ans. 616

Qu. Similarly, C[n+]1c(/C=C/c2ccc(SCCO)cc2)sc2ccccc21 ?
Ans. 546

Qu. Similarly, C[n+]1c(/C=C/c2ccc(N(CCO)CCO)cc2)sc2ccccc21 ?
Ans. 585

Qu. Similarly, COc1ccc(/C=C/c2sc3ccccc3[n+]2C)cc1 ?
Ans. 500

Qu. Similarly, CN(CCO)c1ccc(/C=C/c2sc3ccccc3[n+]2C)cc1 ?
Ans. 587

---

Test system: dsDNA (20 mer)
Experiment description: Emission intensity of dye with equimolar dsDNA relative to free dye (fluorescence spectrometer)
Details: FIG. 2
Observable: direction of change in emission intensity upon addition of DNA

Recorded results for 4 compounds are shown here.
>  <Smiles notation>
C[n+]1c(/C=C/c2ccc(SCCO)cc2)sc2ccccc21

>  <Result>
negative

$$$$
>  <Smiles notation>
C[n+]1c(/C=C/c2ccc(OCCOCCOCCOc3ccc(/C=C/c4sc5ccccc5[n+]4C)cc3)cc2)sc2ccccc21

>  <Result>
negative

$$$$
>  <Smiles notation>
C[n+]1c(/C=C/c2ccc(N(CCO)CCO)cc2)sc2ccccc21

>  <Result>
positive

$$$$
>  <Smiles notation>
COc1ccc(/C=C/c2sc3ccccc3[n+]2C)cc1

>  <Result>
negative

$$$$

// next entry
Qu. What measured direction of change in emission intensity upon addition of DNA goes with CN(CCO)c1ccc(/C=C/c2sc3ccccc3[n+]2C)cc1 ?
Ans. positive
